System: M19-MEL melanoma
METHOD: NCI tumour cell line growth inhibition, 48 h
QUANTITY_MEASURED: TGI

// sample `CCOC(=O)C(=O)Nc1c(CC)cccc1C(C)C` , its TGI was > 100 µM

// sample `c1ccc(SC(CCCCC(Sc2ccccc2)Sc2ccccc2)Sc2ccccc2)cc1` , its TGI was > 100 µM

// sample COc1ccc(C2=C(Cl)c3cc(OC)c(OC)cc3C2Cl)cc1OC (stereo not drawn) , its TGI was 31.7 µM

====

Record form. Attribute: TGI. Fill in for each entry.
System: OVCAR-3 ovarian
METHOD: NCI tumour cell line growth inhibition, 48 h

// sample `O=C(NNC1=NCCN1)c1ccco1` , its TGI was > 100 µM

// sample CC12CCC(C(=O)OC1=O)C(C)(C)O2 (stereo unspecified) , its TGI was > 100 µM

// sample COC1CC(OS(=O)(=O)c2ccc(C)cc2)C(OC(=O)c2ccccc2)C(C)O1 (stereo unspecified) , its TGI was > 10 µM

// sample `C=CC(=O)N1CCN(c2ccc3cccc(NC(=O)c4cnc(C)cn4)c3n2)CC1` , its TGI was > 100 µM

// sample `Cn1c(/C=C(\O)c2ccc(Cl)cc2)nc2ccccc21` , its TGI was > 100 µM

// sample `CCN=C1C=CC(=C(c2ccc(N)cc2)c2ccc(N(CC)CC)c(C)c2)C=C1` , its TGI was 1.26 µM

// sample `O=C(CN1CCNCCN(CC(=O)N2CCCCC2)CCNCC1)N1CCCCC1` , its TGI was > 100 µM

// sample `CN1CCN(Cc2ccc(NC(=O)c3cncc(C#Cc4cnc(N)c5ccncc45)c3)cc2C(F)(F)F)CC1` , its TGI was 7.51 µM

// sample `CCOC(=O)C(C)(c1cn(C)c2ccccc12)c1cn(C)c2ccccc12` , its TGI was > 100 µM

// sample `CCCCCCCCCCCC(=O)OCCOCCOCCOCCOCCOCc1ccc(OC)cc1` , its TGI was > 100 µM

// sample `CCOC(=O)/C(Cl)=C(\C)Nc1nc2c(ccc3ccccc32)s1` , its TGI was > 100 µM
